The measurements presented in this section are drawn from ChEMBL document CHEMBL1201862.

tested on: CAKI-1; test: NCI tumour cell line growth inhibition, 48 h
Activity calls are given as the source filed them. Rule as the data show it: active = GI50 up to about 1.1 µM and inactive = higher.
Assign a class; possible classes are active, inactive

Problem: I'd appreciate the recorded outcome for COC(=O)C(CC(=O)Nc1ccc(C)cc1)C(=O)C(=O)Nc1c(C(C)C)cccc1C(C)C (stereo unspecified) from this test.
Solution: inactive

Problem: I'd appreciate the recorded outcome for COC(=O)/C(=N\NC(=S)NN)C(C(=O)C(=O)Nc1ccccc1C(N)=O)c1nc2ccccc2nc1O (stereo unspecified) from this test.
Solution: inactive

Problem: I'd appreciate the recorded outcome for CCCCCCCCCCCCCCCCCCNc1ccn(C2OC(CO)C(OP(=O)(O)OCC(O)COP(=O)(O)OCC3OC(n4cc(F)c(NCCCCCCCCCCCCCCCCCC)nc4=O)CC3O)C2O)c(=O)n1 (stereo unspecified) from this test.
Solution: inactive

Problem: I'd appreciate the recorded outcome for CC1=C(C)C(=O)C2=C(OCCO2)C1=O from this test.
Solution: inactive

Problem: I'd appreciate the recorded outcome for COc1ccc(Nc2nnc(-c3nsc4ccccc34)s2)cc1 from this test.
Solution: inactive

Problem: I'd appreciate the recorded outcome for COc1cc(N)c2[nH]c3c(C)ccc(C)c3c2c1 from this test.
Solution: inactive

Problem: I'd appreciate the recorded outcome for CC(C)(C)OC(=O)n1c2ccccc2c2c(=O)nc(N3CCCCC3)sc21 from this test.
Solution: inactive

Problem: I'd appreciate the recorded outcome for CN/N=C(/CC(=O)c1sc(NNC(C)=O)nc1C)C(=O)Nc1ccc(OC)cc1OC from this test.
Solution: inactive

Problem: I'd appreciate the recorded outcome for CC(C)(C)OC(=O)C(C1NC(C(=O)O)C(C)(C)S1)N1C(=O)c2ccccc2C1=O (stereo unspecified) from this test.
Solution: inactive

Problem: I'd appreciate the recorded outcome for CC(C)(C)C(=O)OC12/C(=N/O)CCCCCC1c1ccccc12 (stereo unspecified) from this test.
Solution: inactive

Problem: I'd appreciate the recorded outcome for CCCCCCCCCCCCCCCCOP(=O)([O-])OCC[N+](C)(C)C [MILTEFOSINE] from this test.
Solution: inactive

Problem: I'd appreciate the recorded outcome for CC(C)(C)N/C(N)=N/C#N from this test.
Solution: inactive

Problem: I'd appreciate the recorded outcome for C[N+](C)(C)CC(=O)N/N=C(\C(=O)NC1=C(Cl)C(=O)c2ccccc2C1=O)C(C#N)c1csc(-c2ccc([N+](=O)[O-])cc2)n1 (stereo unspecified) from this test.
Solution: inactive

Problem: I'd appreciate the recorded outcome for C[C@@H]1C(=O)O[C@H]1[C@H](O)CO from this test.
Solution: inactive

Problem: I'd appreciate the recorded outcome for COc1cccc2c1OC1c3ccccc3OCC1C2 (stereo unspecified) from this test.
Solution: inactive

Problem: I'd appreciate the recorded outcome for CCOC(=O)c1cc(C2CCN(c3ccccc3)C2=O)c(C(=O)/C=C(/C)N)[nH]1 (stereo unspecified) from this test.
Solution: inactive

Problem: I'd appreciate the recorded outcome for c1ccc(-c2cc(-c3cc(-c4ccccc4)n(-c4ccccc4)n3)nn2-c2ccccc2)cc1 from this test.
Solution: inactive

Problem: I'd appreciate the recorded outcome for O=C1C2C3SC(c4cc5ccccc5cc43)C2C(=O)N1c1ccccc1 (stereo unspecified) from this test.
Solution: inactive

Problem: I'd appreciate the recorded outcome for Clc1sc(Cl)c2c1[C@H](Br)C[C@@H]2Cl from this test.
Solution: inactive

Problem: I'd appreciate the recorded outcome for CC1CCC2(CC1)N=C1CCC(C)CC1C1(CCC(C)CC1)N2 (stereo unspecified) from this test.
Solution: inactive

Problem: I'd appreciate the recorded outcome for CCC1C(=O)OCc2c1cc1n(c2=O)CCC12OCCO2 (stereo unspecified) from this test.
Solution: inactive

Problem: I'd appreciate the recorded outcome for COc1cccc(C2=NC(C(C)C)CO2)c1OC (stereo unspecified) from this test.
Solution: inactive

Problem: I'd appreciate the recorded outcome for Cc1nc2ccccc2c(=O)n1CC(=O)O from this test.
Solution: inactive

Problem: I'd appreciate the recorded outcome for COc1cc2cc(C(=O)N3C[C@H](CCl)c4c3cc(N)c3ccccc43)[nH]c2c(OC)c1OC from this test.
Solution: active

Problem: I'd appreciate the recorded outcome for Cc1nc2c(nc1Cl)nc(Oc1ccc(Cl)cc1)c1ccccc12 from this test.
Solution: inactive

Problem: I'd appreciate the recorded outcome for O=C(O)C1C2CCC(O2)C1C(=O)Nc1cccc2cccnc12 (stereo unspecified) from this test.
Solution: inactive

Problem: I'd appreciate the recorded outcome for c1ccc2c(c1)c1c(n2CCOCCCN2CCCCC2)CCCC1 from this test.
Solution: inactive

Problem: I'd appreciate the recorded outcome for Cn1cccc1-c1ccc(-c2ccc(CO)[se]2)[se]1 from this test.
Solution: active

Problem: I'd appreciate the recorded outcome for O=C1CCCCCCCCCCOC(=O)CCCCCCCCCCO1 from this test.
Solution: inactive

Problem: I'd appreciate the recorded outcome for COc1cc(C2(C)SCCCS2)c(I)c(OC)c1OC from this test.
Solution: inactive

Problem: I'd appreciate the recorded outcome for O=C(Nc1ccccc1Cl)c1cc(S(=O)(=O)Nc2n[nH]c(=O)n2-c2ccccc2)c(S)cc1Cl from this test.
Solution: inactive

* * *

test system: OVCAR-8; assay: NCI tumour cell line growth inhibition, 48 h
Active and inactive are the calls of the source. Cut-off read from the data, not from the text of the source: active = GI50 up to about 1.1 µM and inactive = higher.
Please respond with reported GI50 for every item in the list.

Problem: Request the reported GI50 associated with CC1=N/C(=C\c2cccc([N+](=O)[O-])c2)C(=O)O1
Solution: > 100 µM (inactive)

Problem: Request the reported GI50 associated with Oc1ccc(-c2nc(-c3cccnc3)c(-c3ccc(F)cc3)[nH]2)cc1
Solution: 17.9 µM (inactive)

Problem: Request the reported GI50 associated with O=C1C[C@H](CCC(=O)OCc2ccccc2)NC(=O)C[C@H](CCC(=O)OCc2ccccc2)NC(=O)C[C@H](CCC(=O)OCc2ccccc2)N1
Solution: > 100 µM (inactive)

* * *

test system: NCI-H460; assay: NCI tumour cell line growth inhibition, 48 h
Calls of active or inactive are those of the source. Cut-off read from the data, not from the text of the source: active = GI50 up to about 1.1 µM and inactive = higher.
MEASUREMENT NAME: GI50

Problem: Request the reported GI50 associated with CC[C@]12C=CCN3CCC4(c5cc(/N=N/c6ccccc6)c(OC)cc5N(C)[C@H]4[C@@](O)(C(=O)OC)[C@@H]1OC(C)=O)[C@@H]32 (some centres undefined)
Solution: 16 µM (inactive)

Problem: Request the reported GI50 associated with N#Cc1c(-c2ccccc2)c(CN2CCCCC2)c(=O)n2c1[nH]c1ccccc12
Solution: 25.9 µM (inactive)

Problem: Request the reported GI50 associated with CC1(C)OC2[C@@H](CO[C@@]3([C@@H](O)CCO)OC(C)(C)O[C@@H]23)O1 (some centres undefined)
Solution: > 100 µM (inactive)

Problem: Request the reported GI50 associated with Cc1ccc(C2=Nc3ccccc3SC(c3cccc4c3OCO4)C2)cc1 (centres undefined)
Solution: 31.3 µM (inactive)

Problem: Request the reported GI50 associated with O=C(Nc1ccccc1Cl)c1cc(S(=O)(=O)Nc2n[nH]c(=O)n2-c2ccccc2)c(S)cc1Cl
Solution: > 100 µM (inactive)

Problem: Request the reported GI50 associated with Clc1ccc(-c2cn3c(nc4ccccc43)c(-c3ccccc3)n2)cc1
Solution: 18 µM (inactive)

Problem: Request the reported GI50 associated with CS(=O)(=O)c1nc(-c2cc3c(c(S(C)(=O)=O)n2)CCC3)cc2c1CCC2
Solution: > 100 µM (inactive)

Problem: Request the reported GI50 associated with COc1ccc2[nH]cc(CCNC(C)=O)c2c1
Solution: > 100 µM (inactive)

Problem: Request the reported GI50 associated with COc1cccc(C2=NC(C(C)C)CO2)c1OC (centres undefined)
Solution: > 100 µM (inactive)

Problem: Request the reported GI50 associated with N=c1oc2ccccc2cc1C(=O)Nc1ccccn1
Solution: 95.9 µM (inactive)

Problem: Request the reported GI50 associated with CCCCCCCCCCCCCCCCOP(=O)([O-])OCC[N+](C)(C)C
Solution: 6 µM (inactive)

Problem: Request the reported GI50 associated with O=[N+]([O-])c1ccc(-c2csc(=[N+]3CCCCC3)s2)cc1
Solution: 13.6 µM (inactive)

Problem: Request the reported GI50 associated with CC1OC(OC2C(OC(=O)[C@]34CCC(C)(C)CC3C3=CCC5[C@@]6(C)C[C@H](O)[C@H](OC7OC(COC8OC(CO)C(O)C(O)C8O)C(O)C(O)C7O)[C@@](C)(C(=O)O)C6CC[C@@]5(C)C3(C)CC4)OCC(O)C2O)C(O)C(O)C1OC1OCC(O)C(O)C1O (some centres undefined)
Solution: > 100 µM (inactive)

Problem: Request the reported GI50 associated with COc1ccc2c(c1)c1c(n2CCN2CCOCC2)-c2cccc(OC)c2CC1
Solution: 38.9 µM (inactive)

* * *

system: KM12; experiment: NCI tumour cell line growth inhibition, 48 h
Activity calls are given as the source filed them. Rule as the data show it: active = GI50 up to about 1.1 µM and inactive = higher.
Assign a class; possible classes are 1 for active, -1 for inactive

Problem: I'd appreciate the recorded outcome for CC(NNC(=O)c1cc[n+]([BH2-]C#N)cc1)c1ccc(Cl)c(Cl)c1 (configuration not stated) from this test.
Solution: -1

Problem: I'd appreciate the recorded outcome for CCCc1c(O)nc2ccccc2c1O from this test.
Solution: -1

Problem: I'd appreciate the recorded outcome for N#Cc1c(-c2ccccc2)c(CN2CCCCC2)c(=O)n2c1[nH]c1ccccc12 from this test.
Solution: -1

Problem: I'd appreciate the recorded outcome for CC[C@@H]1CC[C@@H]2[C@H](CC[C@]3(C)[C@@H](OS(=O)(=O)c4ccc(C)cc4)CC[C@@H]23)[C@H]1CO from this test.
Solution: -1

Problem: I'd appreciate the recorded outcome for FC(F)(F)c1nc(Br)[nH]c1C(F)(F)F from this test.
Solution: -1

Problem: I'd appreciate the recorded outcome for COc1cc2cc(C(=O)N3C[C@H](CCl)c4c3cc(N)c3ccccc43)[nH]c2c(OC)c1OC from this test.
Solution: 1

Problem: I'd appreciate the recorded outcome for Cc1c2n(c3ccccc13)CC1C2N(C)OC1(C)C (configuration not stated) from this test.
Solution: -1

Problem: I'd appreciate the recorded outcome for O=CC1OC(=O)c2cc(O)c(O)c(O)c2-c2c(cc(O)c(O)c2O)C(=O)OC1C1OC(=O)c2cc(O)c(O)c(O)c2-c2c(O)c(O)c3oc(=O)c4c(c(O)c(O)c5oc(=O)c2c3c54)-c2c(cc(O)c(O)c2O)C(=O)OCC1O (configuration not stated) from this test.
Solution: -1

Problem: I'd appreciate the recorded outcome for O=C1c2ccc3c4ccccc4n(Cc4ccccc4)c3c2C(=O)N1c1ccccc1 from this test.
Solution: -1

Problem: I'd appreciate the recorded outcome for CSCC[C@H](NC(=O)[C@H](CC(C)C)NC(=O)[C@@H](Cc1ccccc1)NC(=O)CNC(=O)[C@@H](NC(=O)[C@H](C)NC(=O)[C@H](Cc1c[nH]c2ccccc12)NC(=O)[C@H](CCC(N)=O)NC(=O)[C@H](N)CC(N)=O)C(C)C)C(N)=O from this test.
Solution: -1

Problem: I'd appreciate the recorded outcome for CSc1ncc2c(C#N)c3sc4ccccc4n3c(=O)c2n1 from this test.
Solution: -1

Problem: I'd appreciate the recorded outcome for COc1cc(/C=C/c2cc(/C=C/c3ccc(O)c(OC)c3)oc(=O)c2)ccc1O from this test.
Solution: -1
